Biological target: T1, Plasmin from human plasma (human, UniProt P00747 97-810)
T1 chain: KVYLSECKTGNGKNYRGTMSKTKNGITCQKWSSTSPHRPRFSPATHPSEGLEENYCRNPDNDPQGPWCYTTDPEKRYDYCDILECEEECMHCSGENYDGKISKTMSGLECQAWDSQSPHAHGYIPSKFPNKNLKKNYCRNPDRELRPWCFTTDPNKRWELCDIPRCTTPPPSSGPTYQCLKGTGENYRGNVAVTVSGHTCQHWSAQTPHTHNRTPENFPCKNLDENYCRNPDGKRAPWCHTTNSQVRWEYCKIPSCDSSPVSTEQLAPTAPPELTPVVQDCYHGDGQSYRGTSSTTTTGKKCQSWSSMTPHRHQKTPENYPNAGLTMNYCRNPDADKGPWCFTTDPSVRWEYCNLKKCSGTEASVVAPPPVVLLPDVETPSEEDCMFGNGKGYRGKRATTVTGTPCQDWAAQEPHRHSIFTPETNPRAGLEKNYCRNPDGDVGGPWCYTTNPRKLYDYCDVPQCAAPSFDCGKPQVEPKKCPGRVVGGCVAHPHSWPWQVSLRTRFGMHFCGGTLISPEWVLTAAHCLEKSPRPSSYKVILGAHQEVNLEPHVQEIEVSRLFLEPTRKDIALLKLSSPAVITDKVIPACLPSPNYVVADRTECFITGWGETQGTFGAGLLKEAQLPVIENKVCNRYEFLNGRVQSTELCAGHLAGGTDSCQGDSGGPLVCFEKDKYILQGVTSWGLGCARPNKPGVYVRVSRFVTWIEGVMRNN
Assay: substrate peptide degradation inhibition
As shown below, each of these binders has a reported IC50 value.
quantity_name: IC50

binder="active MMP-9-binding peptide M91012 (designed binder) GSGMKETAAAKFERQHMDSPDLGTDDDDKAMADIGSANSDPQFGLFSKYRTPNCRVRGGPSCQMSFNPVCGSDMSTYANECTLCMKIREGGHNIKIIRNGPCGASAAA" result="> 1000 nM"
binder="active MMP-9-binding peptide M91014 (designed binder) GSGMKETAAAKFERQHMDSPDLGTDDDDKAMADIGSANSDPQFGLFSKYRTPNCVMYKYAQCSHKYKPVCGSDMSTYANECTLCMKIREGGHNIKIIRNGPCGASAAA" result="> 1000 nM"
